The entries below come with measured yeast fitness values attached.
B1: tRNA (parent)
chain: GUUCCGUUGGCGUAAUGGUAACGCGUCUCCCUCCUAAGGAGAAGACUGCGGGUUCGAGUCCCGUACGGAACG

# Variants of: B1
# experiment description: yeast fitness relative to wild type (ratio to wild type); higher = fitter; tRNA-Arg(CCU), competitive growth, 37 C, YPD
Variants at the floor of the assay were thinned out.

residue_codes="GUUCCGUUGGCGUAAUGGUCACGCGUUUCCCUCCUGAGGAGAAGACUGCGGGUUCGAGUCCCGUACGGAACG [A20C C27U A36G]" result=0.62

Lookup: Query (variant): GUUCCGUUGGCGUAAUGGUAACGCGUCUACCUCCUAAGGAGAAGACUGCGGGUUCGUGUGCCGUACGGAACG [C29A A57U C60G] ; field requested: yeast fitness
Found: ≤ 0.5

Lookup: Query (variant): GUUCCGUUGGCAUAAUGGCAUCGCGUCUCCCUCCUAAGGAGAAGACUGCGGGUUCGACUCCCGUACGGAACG [G12A U19C A21U G58C] ; field requested: yeast fitness
Found: 0.94

Lookup: Query (variant): GUUCCGUUGCCGUAAUGGUAACGUGUCUACCUCCUAAGGAGAAGUGAGCAGGUUCGAGUCCCGUACGGAACG [G10C C24U C29A A45U C46G U47A G50A] ; field requested: yeast fitness
Found: 0.702

Lookup: Query (variant): GAUCCGUCGGCAUAAUGGUAACGCGUCUCCCUCCUAAGGAGUAGACUGCGGGUUCGAGUCCCGUACGGAACG [U2A U8C G12A A42U] ; field requested: yeast fitness
Found: ≤ 0.5

Lookup: Query (variant): GUUCAGUUGGCGUAAUGGUGACGCGUCUCCCUCCUAAGGACAAGACUGCGGGUUCGAGUCCCGUUCGGAACG [C5A A20G G41C A65U] ; field requested: yeast fitness
Found: ≤ 0.5

Provenance of the data: the RNAGym collection of RNA variant scans (doi:10.1126/science.aae0568)
